combination Emax listing for selected molecules.
Tested on: KM-H2 (Hodgkin's Lymphoma)
Experiment: combination Emax (second highest fraction inhibited in the dose matrix, 72 h); higher = more inhibition; extreme values may be limits of the assay
# print the numeric value only

As a guide, the following entries are already answered.
Challenge: Recorded combination Emax of CC1(C)CCC(CN2CCN(c3ccc(C(=O)NS(=O)(=O)c4ccc(NCC5CCOCC5)c([N+](=O)[O-])c4)c(Oc4cnc5[nH]ccc5c4)c3)CC2)=C(c2ccc(Cl)cc2)C1 [Venetoclax] + C1CN(CCC1(C(=O)N[C@@H](CCO)C2=CC=C(C=C2)Cl)N)C3=NC=NC4=C3C=CN4 [Capivasertib] (first compound max 1 µM, 7x7, partner max 3 µM) , please.
Response given: 0.153

Challenge: Recorded combination Emax of C=CCn1c(=O)c2cnc(Nc3ccc(N4CCN(C)CC4)cc3)nc2n1-c1cccc(C(C)(C)O)n1 [AZD1775] + O=C(c1cc(Cc2n[nH]c(=O)c3ccccc23)ccc1F)N1CCN(C(=O)C2CC2)CC1 [Olaparib] (first compound max 1 µM, partner max 10 µM) , please.
Response given: 0.961

Challenge: Recorded combination Emax of COc1cccc(OCCCN)c1-c1cc(Nc2cnc(C#N)cn2)n[nH]1 [Prexasertib] + O=C(c1cc(Cc2n[nH]c(=O)c3ccccc23)ccc1F)N1CCN(C(=O)C2CC2)CC1 [Olaparib] (first compound max 1 µM, 7x7, partner max 10 µM) , please.
Response given: 0.877

Further cases:
Challenge: Recorded combination Emax of CCc1c2c(nc3ccc(O)cc13)-c1cc3c(c(=O)n1C2)COC(=O)[C@]3(O)CC [SN-38] + CN(C)CCCOc1ccc(-c2ccc3ncc4c(c3c2)n(C2CCOCC2)c(=O)n4C)cn1 [AZD0156] (first compound max 0.3 µM, 7x7, partner max 1 µM) , please.
Response given: 0.907

Challenge: Recorded combination Emax of CS(=O)(=O)CCNCc1ccc(-c2ccc3ncnc(Nc4ccc(OCc5cccc(F)c5)c(Cl)c4)c3c2)o1 [Lapatinib] + C[C@@H](Oc1cc(-c2cnn(C3CCNCC3)c2)cnc1N)c1c(Cl)ccc(F)c1Cl [Crizotinib] (first compound max 10 µM, 7x7, partner max 10 µM) , please.
Response given: 0.931

Challenge: Recorded combination Emax of COc1nnc2ccc(N3CCC(c4ccc(OCCN5CCN(C)C(=O)[C@H]5C)cc4)CC3)nn12 [AZD5153] + CC1(C)CCC(CN2CCN(c3ccc(C(=O)NS(=O)(=O)c4ccc(NCC5CCOCC5)c([N+](=O)[O-])c4)c(Oc4cnc5[nH]ccc5c4)c3)CC2)=C(c2ccc(Cl)cc2)C1 [Venetoclax] (first compound max 1 µM, 7x7, partner max 1 µM) , please.
Response given: 0.377

Challenge: Recorded combination Emax of COc1nnc2ccc(N3CCC(c4ccc(OCCN5CCN(C)C(=O)[C@H]5C)cc4)CC3)nn12 [AZD5153] + Cc1c2c(nn1C)CSCc1cc(n(C)n1)CSc1cc(c3ccccc3c1)OCCCc1c(C(=O)O)n(C)c3c-2c(Cl)ccc13 [AZD5991] (first compound max 1 µM, 7x7, partner max 1 µM) , please.
Response given: 0.451

====

Test system: MDA-MB-231 (Breast Carcinoma);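 note: after 72 h of two-drug dosing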
Experiment: Bliss excess, mean over the matrix (fraction); higher = more synergy
Bliss excess listing for selected compounds.
# print the numeric value only

Challenge: Recorded Bliss excess of O=C(c1cc(Cc2n[nH]c(=O)c3ccccc23)ccc1F)N1CCN(C(=O)C2CC2)CC1 [Olaparib] + CN(CC[C@H](CSC1=CC=CC=C1)NC2=C(C=C(C=C2)S(=O)(=O)NC(=O)C3=CC=C(C=C3)N4CCC(CC4)[C@H](C5=CC=CC=C5C6=CC=C(C=C6)Cl)O)S(=O)(=O)C(F)(F)F)CCO [AZD4320] (first compound max 10 µM, 7x7, partner max 1 µM) , please.
Response given: -0.071

Further cases:
Challenge: Recorded Bliss excess of CC1(C)CCC(CN2CCN(c3ccc(C(=O)NS(=O)(=O)c4ccc(NCC5CCOCC5)c([N+](=O)[O-])c4)c(Oc4cnc5[nH]ccc5c4)c3)CC2)=C(c2ccc(Cl)cc2)C1 [Venetoclax] + Cn1cnc2c(F)c(Nc3ccc(Br)cc3Cl)c(C(=O)NOCCO)cc21 [Selumetinib] (first compound max 1 µM, 7x7, partner max 3 µM) , please.
Response given: -0.0277
